Recorded values, source ChEMBL document CHEMBL1212786.

- methodSummary: Cmax in Sprague-Dawley rat at 2 mg/kg, iv after 24 hrs by LC/MS/MS analysis
- Format: ADME, organism-based
- Design: dose 2 mg/kg, route intravenous
- measurementConditions: in vivo
readoutKind: Cmax (ng/mL)
Give the quantity in ng/mL, number only.

Data point: C/C=C/C[C@@H](C)[C@@H](O)[C@H]1C(=O)N[C@@H](CC)C(=O)N(C)C(SCCN(C)C)C(=O)N(C)[C@@H](CC(C)(C)O)C(=O)N[C@@H](C(C)C)C(=O)N(C)[C@@H](CC(C)C)C(=O)N[C@@H](C)C(=O)N[C@H](C)C(=O)N(C)[C@@H](CC(C)C)C(=O)N(C)[C@@H](CC(C)C)C(=O)N(C)[C@@H](C(C)C)C(=O)N1C (single isomer, unassigned) ; Cmax = 1510

* * *

- methodSummary: Cmax in Sprague-Dawley rat at 5 mg/kg, po after 24 hrs by LC/MS/MS analysis
- Assay type: ADME, organism-based
- Set-up: dose 5 mg/kg, route oral
- measurementConditions: in vivo
readoutKind: Cmax (ng/mL)
Field format: number, assumed ng/mL, no unit text.

For record C/C=C/C[C@@H](C)[C@@H](O)[C@H]1C(=O)N[C@@H](CC)C(=O)N(C)C(SCCN(C)C)C(=O)N(C)[C@@H](CC(C)(C)O)C(=O)N[C@@H](C(C)C)C(=O)N(C)[C@@H](CC(C)C)C(=O)N[C@@H](C)C(=O)N[C@H](C)C(=O)N(C)[C@@H](CC(C)C)C(=O)N(C)[C@@H](CC(C)C)C(=O)N(C)[C@@H](C(C)C)C(=O)N1C (single isomer, unassigned) the listed Cmax is 900

* * *

- methodSummary: Tmax in Sprague-Dawley rat at 5 mg/kg, po by LC/MS/MS analysis
- Format: ADME, organism-based
- Set-up: dose 5 mg/kg, route oral
- measurementConditions: in vivo
readoutKind: Tmax (h)
Answer with a number only, understood to be in h.

According to the records, this compound C/C=C/C[C@@H](C)[C@@H](O)[C@H]1C(=O)N[C@@H](CC)C(=O)N(C)C(SCCN(C)C)C(=O)N(C)[C@@H](CC(C)(C)O)C(=O)N[C@@H](C(C)C)C(=O)N(C)[C@@H](CC(C)C)C(=O)N[C@@H](C)C(=O)N[C@H](C)C(=O)N(C)[C@@H](CC(C)C)C(=O)N(C)[C@@H](CC(C)C)C(=O)N(C)[C@@H](C(C)C)C(=O)N1C (single isomer, unassigned) displays Tmax of 4

* * *

- methodSummary: Oral bioavailability in Sprague-Dawley rat at 5 mg/kg after 24 hrs by LC/MS/MS analysis
- Assay type: ADME, organism-based
- measurementConditions: in vivo
readoutKind: bioavailability
// return the numeric value with its unit appended

bioavailability in this record for C/C=C/C[C@@H](C)[C@@H](O)[C@H]1C(=O)N[C@@H](CC)C(=O)N(C)C(SCCN(C)C)C(=O)N(C)[C@@H](CC(C)(C)O)C(=O)N[C@@H](C(C)C)C(=O)N(C)[C@@H](CC(C)C)C(=O)N[C@@H](C)C(=O)N[C@H](C)C(=O)N(C)[C@@H](CC(C)C)C(=O)N(C)[C@@H](CC(C)C)C(=O)N(C)[C@@H](C(C)C)C(=O)N1C (single isomer, unassigned) : 23.1%

* * *

- methodSummary: Cmax in monkey at 7.5 mg/kg, po after 24 hrs by LC/MS/MS analysis
- Type: ADME, organism-based, Macaca mulatta
- Design: dose 7.5 mg/kg, route oral
- measurementConditions: rhesus monkey, in vivo
readoutKind: Cmax
Entry format: amount then unit.

Recorded result, C/C=C/C[C@@H](C)[C@@H](O)[C@H]1C(=O)N[C@@H](CC)C(=O)N(C)C(SCCN(C)C)C(=O)N(C)[C@@H](CC(C)(C)O)C(=O)N[C@@H](C(C)C)C(=O)N(C)[C@@H](CC(C)C)C(=O)N[C@@H](C)C(=O)N[C@H](C)C(=O)N(C)[C@@H](CC(C)C)C(=O)N(C)[C@@H](CC(C)C)C(=O)N(C)[C@@H](C(C)C)C(=O)N1C (single isomer, unassigned) , Cmax: 1930 ng/mL

* * *

- methodSummary: Systemic clearance in monkey at 1 mg/kg, iv after 24 hrs by LC/MS/MS analysis
- Format: ADME, organism-based, Macaca mulatta
- Set-up: dose 1 mg/kg, route intravenous
- measurementConditions: rhesus monkey, in vivo
readoutKind: clearance

The recorded clearance for C/C=C/C[C@@H](C)[C@@H](O)[C@H]1C(=O)N[C@@H](CC)C(=O)N(C)C(SCCN(C)C)C(=O)N(C)[C@@H](CC(C)(C)O)C(=O)N[C@@H](C(C)C)C(=O)N(C)[C@@H](CC(C)C)C(=O)N[C@@H](C)C(=O)N[C@H](C)C(=O)N(C)[C@@H](CC(C)C)C(=O)N(C)[C@@H](CC(C)C)C(=O)N(C)[C@@H](C(C)C)C(=O)N1C (single isomer, unassigned) is 0.528 mL/min/kg

* * *

- methodSummary: AUC (2 to 24 hrs) in Sprague-Dawley rat whole blood at 30 mg/kg, po by LC/MS/MS analysis
- Type: ADME, organism-based
- Parameters: time 2-24 hr, dose 30 mg/kg, route oral
readoutKind: AUC(0-t) (ng·h/mL)
I only need the number, in ng·h/mL, no unit after it.

For reference, reported AUC(0-t) for C/C=C/C[C@@H](C)[C@@H](O)[C@H]1C(=O)N[C@@H](CC)C(=O)N(C)C(SCCN(C)C)C(=O)N(C)[C@@H](CC(C)(C)O)C(=O)N[C@@H](C(C)C)C(=O)N(C)[C@@H](CC(C)C)C(=O)N[C@@H](C)C(=O)N[C@H](C)C(=O)N(C)[C@@H](CC(C)C)C(=O)N(C)[C@@H](CC(C)C)C(=O)N(C)[C@@H](C(C)C)C(=O)N1C (single isomer, unassigned) stands at 30200

* * *

- methodSummary: Cmax in monkey at 15 mg/kg, po after 24 hrs by LC/MS/MS analysis
- Assay type: ADME, organism-based, Macaca mulatta
- Design: dose 15 mg/kg, route oral
- measurementConditions: rhesus monkey, in vivo
readoutKind: Cmax (ng/mL)
Return type: number; implicit unit ng/mL.

The molecule listed as C/C=C/C[C@@H](C)[C@@H](O)[C@H]1C(=O)N[C@@H](CC)C(=O)N(C)C(SCCN(C)C)C(=O)N(C)[C@@H](CC(C)(C)O)C(=O)N[C@@H](C(C)C)C(=O)N(C)[C@@H](CC(C)C)C(=O)N[C@@H](C)C(=O)N[C@H](C)C(=O)N(C)[C@@H](CC(C)C)C(=O)N(C)[C@@H](CC(C)C)C(=O)N(C)[C@@H](C(C)C)C(=O)N1C (single isomer, unassigned) has a reported Cmax of 2430

* * *

- methodSummary: Apparent volume of distribution in monkey at 1 mg/kg, iv after 24 hrs by LC/MS/MS analysis
- Assay type: ADME, organism-based, Macaca mulatta
- Design: dose 1 mg/kg, route intravenous
- measurementConditions: rhesus monkey, in vivo, read-out: Vz
readoutKind: Vd (L/kg)
The figure you give is taken to be in L/kg; do not add the unit.

Item: C/C=C/C[C@@H](C)[C@@H](O)[C@H]1C(=O)N[C@@H](CC)C(=O)N(C)C(SCCN(C)C)C(=O)N(C)[C@@H](CC(C)(C)O)C(=O)N[C@@H](C(C)C)C(=O)N(C)[C@@H](CC(C)C)C(=O)N[C@@H](C)C(=O)N[C@H](C)C(=O)N(C)[C@@H](CC(C)C)C(=O)N(C)[C@@H](CC(C)C)C(=O)N(C)[C@@H](C(C)C)C(=O)N1C (single isomer, unassigned) [SCY 635] | Vd: 1.02

* * *

- methodSummary: Cmax in Sprague-Dawley rat whole blood at 10 mg/kg, po by LC/MS/MS analysis
- Assay type: ADME, organism-based
- Design: dose 10 mg/kg, route oral
readoutKind: Cmax (ng/mL)
Write the number in ng/mL without appending the unit.

The recorded Cmax for C/C=C/C[C@@H](C)[C@@H](O)[C@H]1C(=O)N[C@@H](CC)C(=O)N(C)C(SCCN(C)C)C(=O)N(C)[C@@H](CC(C)(C)O)C(=O)N[C@@H](C(C)C)C(=O)N(C)[C@@H](CC(C)C)C(=O)N[C@@H](C)C(=O)N[C@H](C)C(=O)N(C)[C@@H](CC(C)C)C(=O)N(C)[C@@H](CC(C)C)C(=O)N(C)[C@@H](C(C)C)C(=O)N1C (single isomer, unassigned) [SCY 635] is 1870

* * *

- methodSummary: Apparent elimination half life Sprague-Dawley rat at 20 mg/kg, po after 24 hrs by LC/MS/MS analysis
- Format: ADME, organism-based
- Parameters: dose 20 mg/kg, route oral
- measurementConditions: in vivo
readoutKind: half-life (h)
Please respond with the number in h and leave the unit unwritten.

Note to self: half-life recorded for C/C=C/C[C@@H](C)[C@@H](O)[C@H]1C(=O)N[C@@H](CC)C(=O)N(C)C(SCCN(C)C)C(=O)N(C)[C@@H](CC(C)(C)O)C(=O)N[C@@H](C(C)C)C(=O)N(C)[C@@H](CC(C)C)C(=O)N[C@@H](C)C(=O)N[C@H](C)C(=O)N(C)[C@@H](CC(C)C)C(=O)N(C)[C@@H](CC(C)C)C(=O)N(C)[C@@H](C(C)C)C(=O)N1C (single isomer, unassigned) was 23.8
